# test_description: Cytotoxicity against mouse RAW264.7 cells measured after 24 hrs by alamarBlue staining based fluorescence analysis
# Type: cell-based
# assay_conditions: read-out: ED50
Non-standard residues stand in square brackets, D forms with d. Residues, ends and D or L forms follow the SMILES beside them. Gly(N-2-aminoethyl) = NCCNCC(=O)O; Nphe = O=C(O)CNCc1ccccc1
measure_name: CC50 at 24 h

Incoming: I would be grateful if you could share the reported CC50 at 24 h for NCCNCC(=O)N(CC(=O)N(CC(=O)N(CCN)CC(=O)N(CC(=O)N(CC(=O)N(CCN)CC(=O)N(CC(=O)N(CC(=O)N(CCN)CC(=O)N(CC(=O)N(CC(N)=O)Cc1ccccc1)Cc1ccccc1)Cc1ccccc1)Cc1ccccc1)Cc1ccccc1)Cc1ccccc1)Cc1ccccc1)Cc1ccccc1 (H-[Gly(N-2-aminoethyl)][Nphe][Nphe][Gly(N-2-aminoethyl)][Nphe][Nphe][Gly(N-2-aminoethyl)][Nphe][Nphe][Gly(N-2-aminoethyl)][Nphe][Nphe]-NH2) .
Outgoing: > 5 µM

Origin of values: ChEMBL document CHEMBL3817808
